# Tested on: HOP-62 multicell spheroids with HUVEC/MSC, viability
# test.details: Anticancer human tumor HOP-62 cell line growth inhibition [KRAS2];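 note: viability read after a week of compound exposure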
# measurement.parameters: curve of first compound; second compound 1 µM
pIC50: −log10 of the molar value.
Measured pIC50 by item

QUERY: Data request, read-out pIC50, for COC(=O)c1ccc2c(C(=Nc3ccc(N(C)C(=O)CN4CCN(C)CC4)cc3)c3ccccc3)c(O)[nH]c2c1 + CC1OCC2(CCN(c3cnc(Sc4ccnc(N)c4Cl)c(N)n3)CC2)C1N
RESULT: > 7.50

QUERY: What measured pIC50 goes with CC(C)NCC(C(=O)N1CCN(c2ncnc3c2C(C)CC3O)CC1)c1ccc(Cl)cc1 (stereo unspecified) + CNCc1ccccc1-c1csc(C(C)Nc2nc(C)nc3cc(OC)c(OC)cc23)c1 ?
RESULT: 6.67

QUERY: I am curious: what pIC50 value has been reported for COC(=O)c1ccc2c(C(=Nc3ccc(N(C)C(=O)CN4CCN(C)CC4)cc3)c3ccccc3)c(O)[nH]c2c1 + CNCc1ccccc1-c1csc(C(C)Nc2nc(C)nc3cc(OC)c(OC)cc23)c1 ?
RESULT: > 7.50

QUERY: pIC50 for Cn1ncnc1[C@H]1c2n[nH]c(=O)c3cc(F)cc(c23)N[C@@H]1c1ccc(F)cc1 + COc1cc2nc(C)nc(NC(C)c3cc(N)cc(C(F)(F)F)c3)c2cc1OC1CCOC1 ?
RESULT: < 7.00

QUERY: Name the reported pIC50 value associated with the compound CN(C)C/C=C/C(=O)Nc1cc2c(Nc3ccc(F)c(Cl)c3)ncnc2cc1O[C@H]1CCOC1 + COc1cc2nc(C)nc(NC(C)c3cc(N)cc(C(F)(F)F)c3)c2cc1OC1CCOC1
RESULT: < 7.00

QUERY: Which pIC50 is listed for CCN1CCN(Cc2ccc(Nc3ncc(F)c(-c4cc(F)c5nc(C)n(C(C)C)c5c4)n3)nc2)CC1 + C=CC(=O)N1CCN(c2nc(OCC3CCCN3C)nc3c2CCN(c2cccc4cccc(C)c24)C3)CC1CC#N ?
RESULT: > 8.50

---

# Test system: HOP-62 multicell spheroids with HUVEC/MSC, viability
# test.details: Anticancer human tumor HOP-62 cell line growth inhibition [KRAS2];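 note: viability read after a week of compound exposure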;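 for viability, T/C: 100% = DMSO vehicle-treated spheroids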
# measurement.parameters: second compound 0.1 µM; first compound 0.1 µM; stronger effect = lower value
The label yes is reserved for viability, T/C strictly under 70%; no covers values equal to or above it.

These recorded examples may help you get a feel for the data.
1) CCNC(=O)CC1N=C(c2ccc(Cl)cc2)c2cc(OC)ccc2-n2c(C)nnc21 (stereo not given) + CNCc1ccccc1-c1csc(C(C)Nc2nc(C)nc3cc(OC)c(OC)cc23)c1
no
2) Cn1ncnc1[C@H]1c2n[nH]c(=O)c3cc(F)cc(c23)N[C@@H]1c1ccc(F)cc1 + C=CC(=O)N1CCN(c2nc(=O)n(-c3c(C)ccnc3C(C)C)c3nc(-c4c(O)cccc4F)c(F)cc23)C(C)C1
yes
3) COc1cc2nccc(Oc3ccc(NC(=O)C4(C(=O)Nc5ccc(F)cc5)CC4)cc3)c2cc1OC + C=CC(=O)N1CCN(c2nc(OCC3CCCN3C)nc3c2CCN(c2cccc4cccc(C)c24)C3)CC1CC#N
yes
4) CCNC(=O)CC1N=C(c2ccc(Cl)cc2)c2cc(OC)ccc2-n2c(C)nnc21 (stereo not given) + COc1cc2nc(C)nc(NC(C)c3cc(N)cc(C(F)(F)F)c3)c2cc1OC1CCOC1
no
5) CCN1CCN(Cc2ccc(Nc3ncc(F)c(-c4cc(F)c5nc(C)n(C(C)C)c5c4)n3)nc2)CC1 + CNCc1ccccc1-c1csc(C(C)Nc2nc(C)nc3cc(OC)c(OC)cc23)c1
no

API: the following record is the query input.
QUERY: # check: viability, T/C < 70% for COc1cc2nccc(Oc3ccc(NC(=O)C4(C(=O)Nc5ccc(F)cc5)CC4)cc3)c2cc1OC + COc1cc2nc(C)nc(NC(C)c3cc(N)cc(C(F)(F)F)c3)c2cc1OC1CCOC1
RESULT: no

Provenance of the data: PubChem BioAssay AID1963858
